Provenance of the data: patent US20240083875A1

STUDY_TARGET: dopamine D1 receptor (Homo sapiens)
Construct: host or cells: LMtk (Ltk-) mouse fibroblast cells
PROTOCOL_TEXT: cAMP HTRF potentiation assay (PAM, in the presence of EC20 dopamine)
Format: cell-based
TEST_SETTINGS: maximal % potentiation relative to dopamine maximal response (100%); EC20 dopamine; LMtk cells expressing D1 receptor
Measured Erel (%) values are reported for all entries that follow.
ENDPOINT: Erel (%)

C[C@H]1c2cccc(-c3cnn(C)c3)c2C[C@H](CO)N1C(=O)Cc1c(Cl)ccc2c1c(Cl)nn2C :: 74
C[C@H]1c2cccc(-c3cnn(C)c3)c2C[C@H](CO)N1C(=O)Cc1c(Cl)ccc2[nH]nc(Cl)c12 :: 63
C[C@H]1c2cccc(-c3cn[nH]c3)c2C[C@H](CO)N1C(=O)Cc1c(Cl)ccc2[nH]nc(Cl)c12 :: 61
C[C@H]1c2cccc(-c3cn[nH]c3)c2C[C@H](CO)N1C(=O)Cc1c(Cl)ccc2c1c(Cl)nn2C :: 71

---

STUDY_TARGET: dopamine D1 receptor (Homo sapiens, UniProt P21728)
Sequence (P21728 whole entry): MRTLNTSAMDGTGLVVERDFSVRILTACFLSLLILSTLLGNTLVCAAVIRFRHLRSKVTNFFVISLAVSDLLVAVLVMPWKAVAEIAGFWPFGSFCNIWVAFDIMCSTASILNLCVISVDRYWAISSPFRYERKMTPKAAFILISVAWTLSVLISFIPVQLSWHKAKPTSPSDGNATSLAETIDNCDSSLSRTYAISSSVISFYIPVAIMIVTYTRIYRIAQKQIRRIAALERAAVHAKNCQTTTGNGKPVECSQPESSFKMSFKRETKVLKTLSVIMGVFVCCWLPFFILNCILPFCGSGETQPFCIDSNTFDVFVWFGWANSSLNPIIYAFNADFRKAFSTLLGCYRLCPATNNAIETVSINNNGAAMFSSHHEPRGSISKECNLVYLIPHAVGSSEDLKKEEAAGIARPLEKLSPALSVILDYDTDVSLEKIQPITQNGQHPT
PROTOCOL_TEXT: cAMP HTRF potentiation assay (PAM, in the presence of EC20 dopamine)
TEST_SETTINGS: potentiation of cAMP levels with EC20 dopamine (1.1 nM); LMtk mouse fibroblast cells expressing D1 receptor
Measured EC50 values are reported for all entries that follow.
ENDPOINT: EC50

C[C@H]1c2cccc(-c3cnn(C)c3)c2C[C@H](CO)N1C(=O)Cc1c(Cl)ccc2c1c(Cl)nn2C [Example 1] :: 12.6 nM
C[C@H]1c2cccc(-c3cn[nH]c3)c2C[C@H](CO)N1C(=O)Cc1c(Cl)ccc2c1c(Cl)nn2C [Example 2] :: 6.31 nM
C[C@H]1c2cccc(-c3cn[nH]c3)c2C[C@H](CO)N1C(=O)Cc1c(Cl)ccc2[nH]nc(Cl)c12 [Example 3] :: 6.31 nM
C[C@H]1c2cccc(-c3cnn(C)c3)c2C[C@H](CO)N1C(=O)Cc1c(Cl)ccc2[nH]nc(Cl)c12 [Example 4] :: 7.94 nM
